The following molecules are listed with their measured relative viability values.
- Test system: NCI-H1703
- assay summary: relative viability (nuclei count vs DMSO), 5 days (fraction); higher = more cells survive
- settings: first compound 0.05 µM
readout: relative viability

• Nc1ccn([C@@H]2O[C@H](CO)[C@@H](O)[C@@H]2O)c(=O)n1 [Cytarabine] + CC1(C)CCC(c2ccc(Cl)cc2)=C(CN2CCN(c3ccc(C(=O)NS(=O)(=O)c4ccc(N[C@H](CCN5CCOCC5)CSc5ccccc5)c(S(=O)(=O)C(F)(F)F)c4)cc3)CC2)C1 [Navitoclax] (partner 0.5 µM) = 0.244
• COc1cc2nccc(Oc3ccc(NC(=O)Nc4cc(C)on4)c(Cl)c3)c2cc1OC [Tivozanib] + CS(=O)(=O)CCNCc1ccc(-c2ccc3ncnc(Nc4ccc(OCc5cccc(F)c5)c(Cl)c4)c3c2)o1 [Lapatinib] (partner 2 µM) = 0.271
• Nc1ccn([C@@H]2O[C@H](CO)[C@@H](O)[C@@H]2O)c(=O)n1 [Cytarabine] + CS(=O)(=O)CCNCc1ccc(-c2ccc3ncnc(Nc4ccc(OCc5cccc(F)c5)c(Cl)c4)c3c2)o1 [Lapatinib] (partner 2 µM) = 0.286
• COc1cc2nccc(Oc3ccc(NC(=O)Nc4cc(C)on4)c(Cl)c3)c2cc1OC [Tivozanib] + C[C@]1(O)C[C@@H](c2nc(-c3ccc4ccc(-c5ccccc5)nc4c3)c3c(N)nccn32)C1 [Linsitinib] (partner 1 µM) = 0.167
• COc1cc2nccc(Oc3ccc(NC(=O)Nc4cc(C)on4)c(Cl)c3)c2cc1OC [Tivozanib] + CS(=O)(=O)N1CCN(Cc2cc3nc(-c4cccc5[nH]ncc45)nc(N4CCOCC4)c3s2)CC1 [Pictilisib] (partner 1 µM) = 0.253
• COc1cc2nccc(Oc3ccc(NC(=O)Nc4cc(C)on4)c(Cl)c3)c2cc1OC [Tivozanib] + NC(=O)Nc1cc(-c2cccc(F)c2)sc1C(=O)N[C@H]1CCCNC1 [AZD7762] (partner 0.2 µM) = 0.139
• Nc1ccn([C@@H]2O[C@H](CO)[C@@H](O)[C@@H]2O)c(=O)n1 [Cytarabine] + COc1cc2c(Oc3ccc(NC(=O)C4(C(=O)Nc5ccc(F)cc5)CC4)cc3F)ccnc2cc1OCCCN1CCOCC1 [Foretinib] (partner 0.25 µM) = 0.253

----------
- System: NCI-H2347
- assay summary: relative viability (nuclei count vs DMSO), 5 days (fraction); higher = more cells survive
- settings: first compound 0.8 µM
readout: relative viability

* O=c1[nH]c2ccccc2n1C1CCN(CCCC(c2ccc(F)cc2)c2ccc(F)cc2)CC1 [Pimozide] + Nc1nc2[nH]cc(CCc3ccc(C(=O)N[C@@H](CCC(=O)O)C(=O)O)cc3)c2c(=O)[nH]1 [Pemetrexed] (partner 0.2 µM) | 0.42
* O=c1[nH]c2ccccc2n1C1CCN(CCCC(c2ccc(F)cc2)c2ccc(F)cc2)CC1 [Pimozide] + Nc1ncn([C@H]2C[C@H](O)[C@@H](CO)O2)c(=O)n1 [Decitabine] (partner 2 µM) | 0.574

----------
- System: NCI-H1792
- assay summary: relative viability (nuclei count vs DMSO), 5 days (fraction); higher = more cells survive
- settings: first compound 2.53 µM
readout: relative viability

• O=c1[nH]c2ccccc2n1C1CCN(CCCC(c2ccc(F)cc2)c2ccc(F)cc2)CC1 [Pimozide] + Nc1nc2[nH]cc(CCc3ccc(C(=O)N[C@@H](CCC(=O)O)C(=O)O)cc3)c2c(=O)[nH]1 [Pemetrexed] (partner 0.2 µM) = 0.727
• O=c1[nH]c2ccccc2n1C1CCN(CCCC(c2ccc(F)cc2)c2ccc(F)cc2)CC1 [Pimozide] + CCNC(=O)c1noc(-c2cc(C(C)C)c(O)cc2O)c1-c1ccc(CN2CCOCC2)cc1 [Luminespib] (partner 0.01 µM) = 0.477
• Cc1cnc(-c2cnc(NCCNc3ccc(C#N)cn3)nc2-c2ccc(Cl)cc2Cl)[nH]1 + CC1(C)CCC(c2ccc(Cl)cc2)=C(CN2CCN(c3ccc(C(=O)NS(=O)(=O)c4ccc(N[C@H](CCN5CCOCC5)CSc5ccccc5)c(S(=O)(=O)C(F)(F)F)c4)cc3)CC2)C1 [Navitoclax] (partner 0.5 µM) = 0.568
• O=c1[nH]c2ccccc2n1C1CCN(CCCC(c2ccc(F)cc2)c2ccc(F)cc2)CC1 [Pimozide] + Cc1nc(Nc2ncc(C(=O)Nc3c(C)cccc3Cl)s2)cc(N2CCN(CCO)CC2)n1 [Dasatinib] (partner 0.075 µM) = 0.973

----------
- System: LCLC-97TM1
- assay summary: relative viability (nuclei count vs DMSO), 5 days (fraction); higher = more cells survive
- settings: first compound 0.8 µM
Label class 1 when relative viability is strictly below 0.6; at or above that, label class 0.

- Cc1cnc(-c2cnc(NCCNc3ccc(C#N)cn3)nc2-c2ccc(Cl)cc2Cl)[nH]1 + CC(C)C[C@H](NC(=O)[C@H](Cc1ccccc1)NC(=O)c1cnccn1)B(O)O [Bortezomib] (partner 0.002 µM): class 0
- Cc1cnc(-c2cnc(NCCNc3ccc(C#N)cn3)nc2-c2ccc(Cl)cc2Cl)[nH]1 + COc1cc2c(Oc3ccc(NC(=O)C4(C(=O)Nc5ccc(F)cc5)CC4)cc3F)ccnc2cc1OCCCN1CCOCC1 [Foretinib] (partner 0.25 µM): class 0
- O=c1[nH]c2ccccc2n1C1CCN(CCCC(c2ccc(F)cc2)c2ccc(F)cc2)CC1 [Pimozide] + CC(C)C[C@H](NC(=O)[C@H](Cc1ccccc1)NC(=O)c1cnccn1)B(O)O [Bortezomib] (partner 0.002 µM): class 1
- Cc1cnc(-c2cnc(NCCNc3ccc(C#N)cn3)nc2-c2ccc(Cl)cc2Cl)[nH]1 + CC(=O)Nc1cccc(-n2c(=O)n(C3CC3)c(=O)c3c(Nc4ccc(I)cc4F)n(C)c(=O)c(C)c32)c1 [Trametinib] (partner 0.02 µM): class 1
- O=c1[nH]c2ccccc2n1C1CCN(CCCC(c2ccc(F)cc2)c2ccc(F)cc2)CC1 [Pimozide] + CS(=O)(=O)N1CCN(Cc2cc3nc(-c4cccc5[nH]ncc45)nc(N4CCOCC4)c3s2)CC1 [Pictilisib] (partner 1 µM): class 1
- Cc1cnc(-c2cnc(NCCNc3ccc(C#N)cn3)nc2-c2ccc(Cl)cc2Cl)[nH]1 + CCNC(=O)c1noc(-c2cc(C(C)C)c(O)cc2O)c1-c1ccc(CN2CCOCC2)cc1 [Luminespib] (partner 0.01 µM): class 0
- O=c1[nH]c2ccccc2n1C1CCN(CCCC(c2ccc(F)cc2)c2ccc(F)cc2)CC1 [Pimozide] + Cc1nc(NC(=O)N2CCC[C@H]2C(N)=O)sc1-c1ccnc(C(C)(C)C(F)(F)F)c1 [Alpelisib] (partner 2 µM): class 1
- Cc1cnc(-c2cnc(NCCNc3ccc(C#N)cn3)nc2-c2ccc(Cl)cc2Cl)[nH]1 + CC(=O)c1c(C)c2cnc(Nc3ccc(N4CCNCC4)cn3)nc2n(C2CCCC2)c1=O [Palbociclib] (partner 0.5 µM): class 1
- Cc1cnc(-c2cnc(NCCNc3ccc(C#N)cn3)nc2-c2ccc(Cl)cc2Cl)[nH]1 + Cc1nc(NC(=O)N2CCC[C@H]2C(N)=O)sc1-c1ccnc(C(C)(C)C(F)(F)F)c1 [Alpelisib] (partner 2 µM): class 1
- Cc1cnc(-c2cnc(NCCNc3ccc(C#N)cn3)nc2-c2ccc(Cl)cc2Cl)[nH]1 + CS(=O)(=O)CCNCc1ccc(-c2ccc3ncnc(Nc4ccc(OCc5cccc(F)c5)c(Cl)c4)c3c2)o1 [Lapatinib] (partner 2 µM): class 0
- Cc1cnc(-c2cnc(NCCNc3ccc(C#N)cn3)nc2-c2ccc(Cl)cc2Cl)[nH]1 + Nc1ncn([C@H]2C[C@H](O)[C@@H](CO)O2)c(=O)n1 [Decitabine] (partner 2 µM): class 1

----------
Below is a list of entries, each paired with its recorded relative viability value.
- System: NCI-H460
- assay summary: relative viability (nuclei count vs DMSO), 5 days (fraction); higher = more cells survive
- settings: first compound 0.005 µM
readout: relative viability

• Nc1ccn([C@@H]2O[C@H](CO)[C@@H](O)[C@@H]2O)c(=O)n1 [Cytarabine] + Cc1nc(NC(=O)N2CCC[C@H]2C(N)=O)sc1-c1ccnc(C(C)(C)C(F)(F)F)c1 [Alpelisib] (partner 2 µM) = 0.31
• Nc1ccn([C@@H]2O[C@H](CO)[C@@H](O)[C@@H]2O)c(=O)n1 [Cytarabine] + O=C(CCCCCCC(=O)Nc1ccccc1)NO [Vorinostat] (partner 1 µM) = 0.422
• COc1cc2nccc(Oc3ccc(NC(=O)Nc4cc(C)on4)c(Cl)c3)c2cc1OC [Tivozanib] + C[C@]1(O)C[C@@H](c2nc(-c3ccc4ccc(-c5ccccc5)nc4c3)c3c(N)nccn32)C1 [Linsitinib] (partner 1 µM) = 0.783
• Nc1ccn([C@@H]2O[C@H](CO)[C@@H](O)[C@@H]2O)c(=O)n1 [Cytarabine] + C[C@]1(O)C[C@@H](c2nc(-c3ccc4ccc(-c5ccccc5)nc4c3)c3c(N)nccn32)C1 [Linsitinib] (partner 1 µM) = 0.509
• COc1cc2nccc(Oc3ccc(NC(=O)Nc4cc(C)on4)c(Cl)c3)c2cc1OC [Tivozanib] + O=C(CCCCCCC(=O)Nc1ccccc1)NO [Vorinostat] (partner 1 µM) = 0.651
• Nc1ccn([C@@H]2O[C@H](CO)[C@@H](O)[C@@H]2O)c(=O)n1 [Cytarabine] + CCNC(=O)c1noc(-c2cc(C(C)C)c(O)cc2O)c1-c1ccc(CN2CCOCC2)cc1 [Luminespib] (partner 0.01 µM) = 0.036
• COc1cc2nccc(Oc3ccc(NC(=O)Nc4cc(C)on4)c(Cl)c3)c2cc1OC [Tivozanib] + C[C@@H](Oc1cc(-c2cnn(C3CCNCC3)c2)cnc1N)c1c(Cl)ccc(F)c1Cl [Crizotinib] (partner 1 µM) = 0.889
• COc1cc2nccc(Oc3ccc(NC(=O)Nc4cc(C)on4)c(Cl)c3)c2cc1OC [Tivozanib] + COc1cccc2cc(-c3nc([C@H]4CC[C@H](C(=O)O)CC4)n4ncnc(N)c34)[nH]c12 [OSI-027] (partner 0.5 µM) = 0.626
• COc1cc2nccc(Oc3ccc(NC(=O)Nc4cc(C)on4)c(Cl)c3)c2cc1OC [Tivozanib] + Cc1nc(NC(=O)N2CCC[C@H]2C(N)=O)sc1-c1ccnc(C(C)(C)C(F)(F)F)c1 [Alpelisib] (partner 2 µM) = 0.483

Data credit: the supplement of paper PMC10307832
